Assay: qHTS assay to identify small molecule agonists of the estrogen related receptor (ERR) signaling pathway from Tox21 library (AID 1224849); further: nearly all actives have a fitted effect of over 15% in size
Conditions: ERR reporter cell line, ONE-Glo luciferase, 18 h; at 92.4 µM (top of the series) unless noted
Activity calls are given as the source filed them. The call rests on the fitted dose curve.
Possible outcomes: 1 for active, 0 for inactive

{"smilesCode": "Nc1ccc(Oc2cccc(Oc3ccc(N)cc3)c2)cc1", "discreteLabel": 0}
{"smilesCode": "O=C(O)C[C@H](O)C[C@H](O)/C=C/c1c(C2CC2)nc2ccccc2c1-c1ccc(F)cc1", "discreteLabel": 1}
{"smilesCode": "Cc1ccc(Cl)c(N)c1Cl", "discreteLabel": 0}
{"smilesCode": "COc1cc([C@@H]2c3cc4c(cc3[C@@H](O[C@@H]3O[C@@H]5CO[C@@H](C)O[C@H]5[C@H](O)[C@H]3O)[C@H]3COC(=O)[C@H]23)OCO4)cc(OC)c1O", "discreteLabel": 0}
{"smilesCode": "C1CCSC1", "discreteLabel": 0}
{"smilesCode": "C=CC(=O)O[C@H]1C[C@@H]2CC[C@@]1(C)C2(C)C", "discreteLabel": 0}
